FYI, the data here is from patent US11839613B2.

Known IC50 of a selection of compounds
biological target: EP2 (Homo sapiens (Human), UniProt P43116); test: hEP2 cAMP assay (SF295 glioblastoma cells, HTRF cAMP); settings: antagonistic activity
Sequence (P43116 whole entry): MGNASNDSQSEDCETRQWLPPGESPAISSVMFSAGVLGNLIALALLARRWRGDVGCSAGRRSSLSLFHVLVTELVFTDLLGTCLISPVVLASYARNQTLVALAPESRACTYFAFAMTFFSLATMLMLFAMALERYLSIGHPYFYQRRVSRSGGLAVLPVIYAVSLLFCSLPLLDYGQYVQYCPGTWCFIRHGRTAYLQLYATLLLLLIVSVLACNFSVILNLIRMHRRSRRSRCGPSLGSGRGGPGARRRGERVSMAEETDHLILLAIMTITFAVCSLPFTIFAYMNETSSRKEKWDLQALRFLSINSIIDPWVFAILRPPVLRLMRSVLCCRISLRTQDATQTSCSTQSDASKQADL
measurement kind: IC50

>>> observed_measurement("CCOc1cc(-c2cc(NCCc3ccc4occc4c3)ncn2)ccc1CC(=O)O")
"538 nM"
>>> observed_measurement("CCCc1cc(-c2cc(NCCc3ccc4ccccc4c3C)ncn2)cc(F)c1C(=O)O")
"151 nM"
>>> observed_measurement("O=C(O)c1ccc(-c2cc(NCCc3ccc4c(c3)CCS4)ncn2)cc1OC1CCC1")
"94 nM"
>>> observed_measurement("CCOc1cc(-c2cc(NCCc3ccc4c(ccn4C)c3)ncn2)sc1C(=O)O")
"304 nM"
>>> observed_measurement("CCOc1cc(-c2cc(NCCc3cc4sccc4cc3OC)ncn2)ccc1C(=O)O")
"405 nM"
>>> observed_measurement("COc1cc2cc(F)oc2cc1CCNc1cc(-c2ccc(C(=O)O)c(OC3CCC3)c2)ncn1")
"514 nM"
>>> observed_measurement("CCOc1nc(-c2cc(NCCc3ccc4ccccc4c3C)ncn2)sc1C(=O)O")
"51 nM"
>>> observed_measurement("COc1cc2ccccc2c(F)c1CCNc1cc(-c2ccc(C(=O)O)c(OC3CCC3)c2)ncn1")
"98 nM"
>>> observed_measurement("COc1cc(-c2cc(NCCc3cc4cccnc4cc3F)ncn2)sc1C1(O)COC1")
"618 nM"
